Quick reference for relative viability among some molecules
- Test system: HCC-827
- experimental-protocol: relative viability (nuclei count vs DMSO), 5 days (fraction); higher = more cells survive
- reported-conditions: first compound 1 µM
Respond numerically, and do not add a unit to the figure.

# example entries with known answers
CCN(CC)CCCCNc1ncc2cc(-c3cc(OC)cc(OC)c3)c(NC(=O)NC(C)(C)C)nc2n1 + CC1(C)CCC(c2ccc(Cl)cc2)=C(CN2CCN(c3ccc(C(=O)NS(=O)(=O)c4ccc(N[C@H](CCN5CCOCC5)CSc5ccccc5)c(S(=O)(=O)C(F)(F)F)c4)cc3)CC2)C1 [Navitoclax] (partner 0.5 µM) : 1.02
CCN(CC)CCCCNc1ncc2cc(-c3cc(OC)cc(OC)c3)c(NC(=O)NC(C)(C)C)nc2n1 + CS(=O)(=O)N1CCN(Cc2cc3nc(-c4cccc5[nH]ncc45)nc(N4CCOCC4)c3s2)CC1 [Pictilisib] (partner 1 µM) : 1.02
O=c1cc(N2CCOCC2)oc2c(-c3cccc4c3sc3ccccc34)cccc12 + CC(C)C[C@H](NC(=O)[C@H](Cc1ccccc1)NC(=O)c1cnccn1)B(O)O [Bortezomib] (partner 0.002 µM) : 1.02

Now for a further molecule.
**Query** Need relative viability of O=c1cc(N2CCOCC2)oc2c(-c3cccc4c3sc3ccccc34)cccc12 + Nc1ncn([C@H]2C[C@H](O)[C@@H](CO)O2)c(=O)n1 [Decitabine] (partner 2 µM) , thanks.
**Result** 0.161

====

- Tested on: UMC-11
- experimental-protocol: relative viability (nuclei count vs DMSO), 5 days (fraction); higher = more cells survive
- reported-conditions: first compound 0.253 µM
value-type: relative viability
Respond numerically, and do not add a unit to the figure.

# example entries with known answers
O=c1cc(-c2cccc3c2Sc2ccccc2S3)oc(N2CCOCC2)c1 + N=C(N)NC(=N)NCCc1ccccc1 [Phenformin] (partner 250 µM) : 0.34
COc1nc(C)cnc1NS(=O)(=O)c1cccnc1-c1ccc(-c2nnco2)cc1 [Zibotentan] + CC(C)C[C@H](NC(=O)[C@H](Cc1ccccc1)NC(=O)c1cnccn1)B(O)O [Bortezomib] (partner 0.002 µM) : 0.623

Now for a further compound.
**Query** Need relative viability of O=c1cc(-c2cccc3c2Sc2ccccc2S3)oc(N2CCOCC2)c1 + Cc1nc(Nc2ncc(C(=O)Nc3c(C)cccc3Cl)s2)cc(N2CCN(CCO)CC2)n1 [Dasatinib] (partner 0.075 µM) , thanks.
**Result** 0.591

====

- Test system: HCC-44
- experimental-protocol: relative viability (nuclei count vs DMSO), 5 days (fraction); higher = more cells survive
- reported-conditions: first compound 0.03162 µM
Quick reference for relative viability among some compounds
Respond numerically, and do not add a unit to the figure.

O=c1cc(N2CCOCC2)oc2c(-c3cccc4c3sc3ccccc34)cccc12 + CC(=O)Nc1cccc(-n2c(=O)n(C3CC3)c(=O)c3c(Nc4ccc(I)cc4F)n(C)c(=O)c(C)c32)c1 [Trametinib] (partner 0.02 µM) : 1.06

**Query** For the record O=c1cc(N2CCOCC2)oc2c(-c3cccc4c3sc3ccccc34)cccc12 + O=C(CCCCCCC(=O)Nc1ccccc1)NO [Vorinostat] (partner 1 µM) , what value of relative viability is listed for HCC-44?
**Result** 1.05

**Query** Consider next the compound O=c1cc(N2CCOCC2)oc2c(-c3cccc4c3sc3ccccc34)cccc12 + C[C@]1(O)C[C@@H](c2nc(-c3ccc4ccc(-c5ccccc5)nc4c3)c3c(N)nccn32)C1 [Linsitinib] (partner 1 µM) in the same way.
**Result** 0.661
